Recorded Activity values for a group of compounds are listed next.
target: Protein N-lysine methyltransferase METTL21A (Homo sapiens) (UniProt Q8WXB1); assay: Inhibition of METTL21A (unknown origin) using biotin-labeled histone substrate assessed as residual activity at 50 uM in presence of [3H-Me]SAM by scintillation proximity assay relative to control
Sequence (Q8WXB1 whole entry): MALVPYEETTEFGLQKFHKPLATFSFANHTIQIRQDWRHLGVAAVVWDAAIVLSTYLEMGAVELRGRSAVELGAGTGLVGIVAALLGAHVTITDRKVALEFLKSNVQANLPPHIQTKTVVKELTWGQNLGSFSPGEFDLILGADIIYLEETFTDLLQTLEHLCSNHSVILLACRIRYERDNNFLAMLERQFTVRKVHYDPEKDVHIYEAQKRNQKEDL
Numeric answer only, unit % assumed.

Guide cases for Activity, answers given:
• O=C(c1cccc(Br)c1)N1C[C@@H]2CC3CCCN3[C@@H]2C1 (stereo partly specified) = 100
• CN1C[C@H]2CCCN(C(=O)c3cccc(Br)c3)[C@H]2C1 = 93

Dear colleague, I am looking for the recorded Activity of the following compound: CN1CCC2(CCCN(C(=O)c3cccc(Br)c3)C2)C1 (stereo unspecified)
105

Field request: Activity | item: CN1CCCC12CCN(C(=O)c1cccc(Br)c1)CC2
98

What Activity value was documented for this compound, O=C(c1cccc(Br)c1)N1CCCC2(CCNCC2)C1 ?
97

GET /values?readout=Activity&item= CN1CCC[C@@H]2CN(C(=O)c3cccc(Br)c3)C[C@@H]21
108

====

Molecular target: Histone-lysine N-methyltransferase SMYD3 (Homo sapiens) (UniProt Q9H7B4)
Sequence (whole entry): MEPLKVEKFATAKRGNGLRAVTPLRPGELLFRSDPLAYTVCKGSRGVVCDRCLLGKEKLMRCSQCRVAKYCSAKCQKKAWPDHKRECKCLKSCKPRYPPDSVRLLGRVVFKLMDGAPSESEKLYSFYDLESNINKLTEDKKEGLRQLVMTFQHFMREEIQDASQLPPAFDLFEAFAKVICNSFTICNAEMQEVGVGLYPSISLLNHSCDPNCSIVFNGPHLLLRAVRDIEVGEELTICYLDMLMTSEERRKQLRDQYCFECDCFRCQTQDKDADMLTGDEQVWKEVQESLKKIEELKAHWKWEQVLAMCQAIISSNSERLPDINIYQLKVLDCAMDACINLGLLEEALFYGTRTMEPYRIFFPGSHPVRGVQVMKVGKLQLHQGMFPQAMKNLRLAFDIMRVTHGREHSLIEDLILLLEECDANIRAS
Assay: Inhibition of SMYD3 (unknown origin) using biotin-labeled histone substrate assessed as residual activity at 50 uM in presence of [3H-Me]SAM by scintillation proximity assay relative to control
endpoint_label: Activity (%)
# output: bare number, implied unit %

Recorded Activity, per entry:
• O=C(c1cccc(Br)c1)N1CCC[C@@H]2CNC[C@@H]21 = 98
• CN1CCC2(CC1)CCN(C(=O)c1cccc(Br)c1)CC2 = 98
• CN1CCC2(CCCN2C(=O)c2cccc(Br)c2)CC1 = 99

Given the entry CN1CCC[C@@H]2CN(C(=O)c3cccc(Br)c3)C[C@@H]21 , report its measured Activity.
112

What measured Activity goes with C[N+]1(C)CCCCC12CCN(C(=O)c1cccc(Br)c1)CC2 ?
100

Need Activity, item O=C(c1cccc(Br)c1)N1C[C@@H]2CCN[C@@H]2C1
101

====

# key: entry, value: Activity
target: Histone-lysine N-methyltransferase, H3 lysine-36 specific (Homo sapiens); experiment: Inhibition of NSD1 (unknown origin) using biotin-labeled histone substrate assessed as residual activity at 50 uM in presence of [3H-Me]SAM by scintillation proximity assay relative to control
Report the figure in % without appending any unit label.

- CN1CCCC2(CCCN2C(=O)c2cccc(Br)c2)C1 (centres undefined): 101
- CN1C[C@H]2CCCN(C(=O)c3cccc(Br)c3)[C@H]2C1: 99
- O=C(c1cccc(Br)c1)N1C[C@H]2CCCN[C@H]2C1: 107
- CN1CCCCC12CCN(C(=O)c1cccc(Br)c1)CC2: 96
- O=C(c1cccc(Br)c1)N1C[C@@H]2CC3CCCN3[C@@H]2C1 (some centres undefined): 106
- CN1CCCC12CCN(C(=O)c1cccc(Br)c1)CC2: 93
- CN1CCC2(CCCN2C(=O)c2cccc(Br)c2)CC1: 91
- O=C(c1cccc(Br)c1)N1CC[C@H]2NCC[C@H]2C1: 95

Bench note: what Activity did C[N+]1(C)CCCCC12CCN(C(=O)c1cccc(Br)c1)CC2 show?
95
